Assay: Pharmacokinetics of PEGylated protease inhibitor prodrugs in rats
Type: in vivo, male Sprague-Dawley rats
Details: prodrug in plasma
Below: a set of entries, each annotated with reported MRTlast.
Answer with a number only, understood to be in h.

{"compound": "COCCOCCOCCOC(=O)NC(C(=O)NC(Cc1ccccc1)C(CN(Cc1ccc(-c2ccccn2)cc1)NC(=O)C(NC(=O)OC)C(C)(C)C)OC(=O)CCCC(=O)OC1C(O)C(O)OC1C(O)CO)C(C)(C)C (centres unmarked)", "value kind": "MRTlast", "units symbol": "h", "value reported": 1.86}

Input line: MRTlast for CCOC(C)OC(CN(Cc1ccc(-c2ccccn2)cc1)NC(=O)C(NC(=O)OC)C(C)(C)C)C(Cc1ccccc1)NC(=O)C(NC(=O)OCCOCCOCCOCCOCCOC)C(C)(C)C (mixture of isomers) ?
Output line: 1.80

Input line: MRTlast for CCOC(=O)OC(CN(Cc1ccc(-c2ccccn2)cc1)NC(=O)C(NC(=O)OC)C(C)(C)C)C(Cc1ccccc1)NC(=O)C(NC(=O)OCCOCCOCCOC)C(C)(C)C (centres unmarked) [mPEG3-atazanavir ethyl carbonate, mPEG3-Atazanavir Ethyl Carbonate] ?
Output line: 3.12

Input line: MRTlast for CCOC(C)OC(CN(Cc1ccc(-c2ccccn2)cc1)NC(=O)C(NC(=O)OC)C(C)(C)C)C(Cc1ccccc1)NC(=O)C(NC(=O)OCCOCCOCCOC)C(C)(C)C (mixture of isomers) ?
Output line: 1.62

Input line: MRTlast for COCCOCCOCCOCCOCCOC(=O)NC(C(=O)NC(Cc1ccccc1)C(CN(Cc1ccc(-c2ccccn2)cc1)NC(=O)C(NC(=O)OC)C(C)(C)C)OC(=O)COCCOC(=O)C(N)Cc1ccccc1)C(C)(C)C.Cl (centres unmarked) [mPEG5-Atazanavir-CME-phenylalanine HCl] ?
Output line: 0.25

###

Assay: Pharmacokinetics of released PEGylated protease inhibitor following P.O. administration of prodrugs in rats
Type: in vivo, male Sprague-Dawley rats
Settings: mPEG3-atazanavir in plasma after PO administration of mPEG3-ATV or of the listed prodrug, rats (n = 4-5)
Method: Pharmacokinetic analysis of protease inhibitors described herein was conducted. To evaluate the pharmacokinetics of PEGylated protease inhibitor conjugates with releasable lipophilic attachments, test compounds were administered to male Sprague-Dawley rats. At various times following test article administration, serial blood samples were collected from indwelling jugular vein catheters and transferred to micro-tubes containing 7.5 μL of 20% w/v K2EDTA as an anticoagulant. […]
Below: a set of entries, each annotated with reported MRT last Mean.
Answer with a number only, understood to be in h.

Some molecules with known MRT last Mean results, for comparison:
{"molecule": "CCCCCC(=O)O[C@@H](CN(Cc1ccc(-c2ccccn2)cc1)NC(=O)[C@@H](NC(=O)OC)C(C)(C)C)[C@H](Cc1ccccc1)NC(=O)[C@@H](NC(=O)OCCOCCOCCOC)C(C)(C)C [C5H11CO-mPEG3-ATV, C5H11CO-mPEG3-atazanavir]", "units symbol": "h", "MRT last Mean": 2.78}
{"molecule": "COCCOCCOCCOC(=O)NC(C(=O)NC(Cc1ccccc1)C(CN(Cc1ccc(-c2ccccn2)cc1)NC(=O)C(NC(=O)OC)C(C)(C)C)OC(=O)COCCOC(=O)C(N)Cc1ccccc1)C(C)(C)C.Cl (stereo not drawn) [mPEG3-Atazanavir-CME-phenylalanine HCl, mPEG3-atazanavir-CME-phenylalanine]", "units symbol": "h", "MRT last Mean": 18.5}
{"molecule": "COCCOCCOCCOC(=O)N[C@H](C(=O)N[C@@H](Cc1ccccc1)[C@H](CN(Cc1ccc(-c2ccccn2)cc1)NC(=O)[C@@H](NC(=O)OC)C(C)(C)C)OCOC)C(C)(C)C", "units symbol": "h", "MRT last Mean": 3.26}
{"molecule": "CCOCO[C@@H](CN(Cc1ccc(-c2ccccn2)cc1)NC(=O)[C@@H](NC(=O)OC)C(C)(C)C)[C@H](Cc1ccccc1)NC(=O)[C@@H](NC(=O)OCCOCCOCCOC)C(C)(C)C", "units symbol": "h", "MRT last Mean": 3.29}
{"molecule": "COCCOCCOCCOC(=O)NC(C(=O)NC(Cc1ccccc1)C(CN(Cc1ccc(-c2ccccn2)cc1)NC(=O)C(NC(=O)OC)C(C)(C)C)OC(=O)COCCOC(=O)C(N)CC(C)C)C(C)(C)C.Cl (stereo not drawn) [mPEG3-Atazanavir-CME-Leucine HCl, mPEG3-Atazanavir-CME-Leucine]", "units symbol": "h", "MRT last Mean": 17.4}
{"molecule": "CCCCC(=O)OC(CN(Cc1ccc(-c2ccccn2)cc1)NC(=O)C(NC(=O)OC)C(C)(C)C)C(Cc1ccccc1)NC(=O)C(NC(=O)OCCOCCOCCOC)C(C)(C)C (stereo not drawn)", "units symbol": "h", "MRT last Mean": 3.00}
{"molecule": "CCCC(=O)O[C@@H](CN(Cc1ccc(-c2ccccn2)cc1)NC(=O)[C@@H](NC(=O)OC)C(C)(C)C)[C@H](Cc1ccccc1)NC(=O)[C@@H](NC(=O)OCCOCCOCCOC)C(C)(C)C [C3H7CO-mPEG3-ATV, mPEG3-Atazanavir Butyrate]", "units symbol": "h", "MRT last Mean": 1.56}
{"molecule": "COCCOCCOCCOC(=O)N[C@H](C(=O)N[C@@H](Cc1ccccc1)[C@H](CN(Cc1ccc(-c2ccccn2)cc1)NC(=O)[C@@H](NC(=O)OC)C(C)(C)C)OC(C)=O)C(C)(C)C", "units symbol": "h", "MRT last Mean": 1.01}

Input line: MRT last Mean for CCC(=O)OC(CN(Cc1ccc(-c2ccccn2)cc1)NC(=O)C(NC(=O)OC)C(C)(C)C)C(Cc1ccccc1)NC(=O)C(NC(=O)OCCOCCOCCOC)C(C)(C)C (stereo not drawn) [C2H5CO-mPEG3-ATV, mPEG3-Atazanavir Propionate] ?
Output line: 2.44

Input line: MRT last Mean for COCCOCCOCCOC(=O)N[C@H](C(=O)N[C@@H](Cc1ccccc1)[C@H](CN(Cc1ccc(-c2ccccn2)cc1)NC(=O)[C@@H](NC(=O)OC)C(C)(C)C)OC(=O)[C@H](Cc1ccccc1)NC(=O)[C@@H](N)CC(C)C)C(C)(C)C.Cl [Leu-Phe-mPEG3-Atazanavir, Leu-Phe-mPEG3-Atazanavir Hydrochloride] ?
Output line: 7.56

Input line: MRT last Mean for COCCOCCOCCOC(=O)NC(C(=O)NC(Cc1ccccc1)C(CN(Cc1ccc(-c2ccccn2)cc1)NC(=O)C(NC(=O)OC)C(C)(C)C)OC(=O)C(N)CC(C)C)C(C)(C)C.Cl (stereo not drawn) ?
Output line: 4.14

Input line: MRT last Mean for COCCOCCOCCOC(=O)N[C@H](C(=O)N[C@@H](Cc1ccccc1)[C@H](CN(Cc1ccc(-c2ccccn2)cc1)NC(=O)[C@@H](NC(=O)OC)C(C)(C)C)OCOCCOC)C(C)(C)C ?
Output line: 1.93

Input line: MRT last Mean for CCOC(CC)OC(CN(Cc1ccc(-c2ccccn2)cc1)NC(=O)C(NC(=O)OC)C(C)(C)C)C(Cc1ccccc1)NC(=O)C(NC(=O)OCCOCCOCCOC)C(C)(C)C (mixture of isomers) ?
Output line: 3.83

Input line: MRT last Mean for COCCOCCOCCOC(=O)NC(C(=O)NC(Cc1ccccc1)C(CN(Cc1ccc(-c2ccccn2)cc1)NC(=O)C(NC(=O)OC)C(C)(C)C)OC(=O)C(N)C(C)C)C(C)(C)C.Cl [mPEG3-ATV-L-valine, mPEG3-Atazanavir-L-valine HCl] ?
Output line: 4.45

Input line: MRT last Mean for CCCCCCCCCCCCCCCCOCC(COP(=O)(O)OC(CN(Cc1ccc(-c2ccccn2)cc1)NC(=O)C(NC(=O)OC)C(C)(C)C)C(Cc1ccccc1)NC(=O)C(NC(=O)OCCOCCOCCOC)C(C)(C)C)OC (stereo not drawn) ?
Output line: 0.640

###

Below: a set of entries, each annotated with reported AUC.
Assay: Pharmacokinetics of PEGylated protease inhibitor prodrugs in rats
Assay type: in vivo, male Sprague-Dawley rats
Conditions: male, Sprague-Dawley, rat, in vivo, prodrug in plasma, mean ± SD
Experimental: Pharmacokinetic analysis of protease inhibitors described herein was conducted. To evaluate the pharmacokinetics of PEGylated protease inhibitor conjugates with releasable lipophilic attachments, test compounds were administered to male Sprague-Dawley rats. At various times following test article administration, serial blood samples were collected from indwelling jugular vein catheters and transferred to micro-tubes containing 7.5 μL of 20% w/v K2EDTA as an anticoagulant. […]
Where a name gives a salt, the structure may show the parent alone.
Answer with a number only, understood to be in ng·h/mL.

Input line: AUC for COCCOCCOCCOC(=O)N[C@H](C(=O)N[C@@H](Cc1ccccc1)[C@H](CN(Cc1ccc(-c2ccccn2)cc1)NC(=O)[C@@H](NC(=O)OC)C(C)(C)C)OC(=O)[C@H](Cc1ccccc1)NC(=O)[C@@H](N)C(C)C)C(C)(C)C [Val-Phe-mPEG3-Atazanavir, Val-Phe-mPEG3-Atazanavir Hydrochloride] ?
Output line: 700

Input line: AUC for COCCOCCOCCOC(=O)N[C@H](C(=O)N[C@@H](Cc1ccccc1)[C@H](CN(Cc1ccc(-c2ccccn2)cc1)NC(=O)[C@@H](NC(=O)OC)C(C)(C)C)OC(=O)[C@H](Cc1ccccc1)NC(=O)[C@@H](N)Cc1ccccc1)C(C)(C)C [Phe-Phe-mPEG3-Atazanavir, Phe-Phe-mPEG3-Atazanavir Hydrochloride] ?
Output line: 609

Every entry's value here was drawn from patent US20120108501A1.
